src = paper PMC9749936

Tested on: P. aeruginosa PAO1
Type: cell-based, Pseudomonas aeruginosa
runConditions: PAO1, 18 h
Bridge positions count the residues as written; N and C are the ends. Square brackets hold non-standard residues; d marks the D form. Peptide text beside a SMILES is read from it. * marks the point of attachment. ξ: configuration not given here. Hexanoyl(4ξ-Me) = CCC(C)CCC(=O)*; Lauroyl = CCCCCCCCCCCC(=O)*; dOrn = NCCC[C@@H](N)C(=O)O; Orn = NCCC[C@H](N)C(=O)O
Assignment: determine reported Antimicrobial activity (MIC) P. aeruginosa PAO1 for the given compounds.
One number for each entry, in mg/L.

-- ask Name the recorded Antimicrobial activity (MIC) P. aeruginosa PAO1 for CCCCCCCCCCCC(=O)N[C@H](CO)C(=O)N[C@H](Cc1ccc(O)cc1)C(=O)N[C@H](Cc1c[nH]c2ccccc12)C(=O)N[C@H](CCCN)C(=O)N[C@@H](CCCN)C(=O)NCC(=O)N[C@H](CCCN)C(=O)N[C@@H](Cc1c[nH]c2ccccc12)C(=O)N[C@@H]1C(=O)N[C@@H]([C@@H](C)CC)C(=O)N[C@@H](CC(N)=O)C(=O)NCC(=O)NCC(=O)O[C@@H]1C [Compound 24] (Lauroyl-[dS][dY][dW][dOrn][Orn]G[dOrn]WTINGG; ester 9-C) .
-- reply 8

Below: the item to evaluate.
-- ask Antimicrobial activity (MIC) P. aeruginosa PAO1 lookup needed for CCC(C)CCC(=O)N[C@H](CC(N)=O)C(=O)N[C@H](Cc1ccc(O)cc1)C(=O)N[C@H](Cc1c[nH]c2ccccc12)C(=O)N[C@H](CCCN)C(=O)N[C@@H](CCCN)C(=O)NCC(=O)N[C@H](CCCN)C(=O)N[C@@H](Cc1c[nH]c2ccccc12)C(=O)N[C@@H]1C(=O)N[C@@H]([C@@H](C)CC)C(=O)NCC(=O)N[C@@H](CO)C(=O)O[C@@H]1C (some centres unmarked) [Compound 1, brevicidine] ({Hexanoyl(4ξ-Me)}-[dN][dY][dW][dOrn][Orn]G[dOrn]WTIGS; ester 9-C) , thanks.
-- reply 8

* * *

Test system: P. aeruginosa PAO1
Format: cell-based, Pseudomonas aeruginosa
runConditions: PAO1, 18 h
Bridge positions count the residues as written; N and C are the ends. Square brackets hold non-standard residues; d marks the D form. Peptide text beside a SMILES is read from it. * marks the point of attachment. Octanoyl(7-Me) = CC(C)CCCCCC(=O)*; dOrn = NCCC[C@@H](N)C(=O)O; Orn = NCCC[C@H](N)C(=O)O; Butyryl = CCCC(=O)*
quantityKind: Antimicrobial activity (MIC) P. aeruginosa PAO1 (µg/mL)
One number for each entry, in µg/mL.

-- ask Need Antimicrobial activity (MIC) P. aeruginosa PAO1, item CCCC(=O)N[C@H](CO)C(=O)N[C@H](Cc1ccc(O)cc1)C(=O)N[C@H](Cc1c[nH]c2ccccc12)C(=O)N[C@H](CCCN)C(=O)N[C@@H](CCCN)C(=O)NCC(=O)N[C@H](CCCN)C(=O)N[C@@H](Cc1c[nH]c2ccccc12)C(=O)N[C@@H]1C(=O)N[C@@H]([C@@H](C)CC)C(=O)N[C@@H](CC(N)=O)C(=O)NCC(=O)NCC(=O)O[C@@H]1C [Compound 20] (Butyryl-[dS][dY][dW][dOrn][Orn]G[dOrn]WTINGG; ester 9-C)
-- reply 8

With those in mind, consider the next molecule.
-- ask Quick one: Antimicrobial activity (MIC) P. aeruginosa PAO1 for CC[C@H](C)[C@@H]1NC(=O)[C@@H](NC(=O)[C@H](Cc2c[nH]c3ccccc23)NC(=O)[C@@H](CCCN)NC(=O)CNC(=O)[C@H](CCCN)NC(=O)[C@@H](CCCN)NC(=O)[C@@H](Cc2c[nH]c3ccccc23)NC(=O)[C@@H](Cc2ccc(O)cc2)NC(=O)[C@@H](CO)NC(=O)CCCCCC(C)C)[C@@H](C)OC(=O)CNC(=O)CNC(=O)[C@H](CC(N)=O)NC1=O [Compound 2, laterocidine] ({Octanoyl(7-Me)}-[dS][dY][dW][dOrn][Orn]G[dOrn]WTINGG; ester 9-C; N-terminus assumed) ?
-- reply 4

* * *

Test system: P. aeruginosa PAO1
Assay type: cell-based, Pseudomonas aeruginosa
runConditions: PAO1, 18 h
Bridge positions count the residues as written; N and C are the ends. Square brackets hold non-standard residues; d marks the D form. Peptide text beside a SMILES is read from it. * marks the point of attachment. Myristoyl = CCCCCCCCCCCCCC(=O)*; dOrn = NCCC[C@@H](N)C(=O)O; Orn = NCCC[C@H](N)C(=O)O; Hexanoyl = CCCCCC(=O)*
For each of the molecules below, state its Antimicrobial activity (MIC) P. aeruginosa PAO1.
One number for each entry, in µg/mL.

Some entries whose results are on file:
-- ask GET /values?readout=Antimicrobial activity (MIC) P. aeruginosa PAO1&item= CCCCCC(=O)N[C@H](CO)C(=O)N[C@H](Cc1ccc(O)cc1)C(=O)N[C@H](Cc1c[nH]c2ccccc12)C(=O)N[C@H](CCCN)C(=O)N[C@@H](CCCN)C(=O)NCC(=O)N[C@H](CCCN)C(=O)N[C@@H](Cc1c[nH]c2ccccc12)C(=O)N[C@@H]1C(=O)N[C@@H]([C@@H](C)CC)C(=O)N[C@@H](CC(N)=O)C(=O)NCC(=O)NCC(=O)O[C@@H]1C [Compound 21] (Hexanoyl-[dS][dY][dW][dOrn][Orn]G[dOrn]WTINGG; ester 9-C)
-- reply 4

-- ask Given the molecule CC[C@H](C)[C@@H]1NC(=O)[C@@H](NC(=O)[C@H](Cc2c[nH]c3ccccc23)NC(=O)[C@@H](CCCN)NC(=O)CNC(=O)[C@H](CCCN)NC(=O)[C@@H](CCCN)NC(=O)[C@@H](Cc2c[nH]c3ccccc23)NC(=O)[C@@H](Cc2ccc(O)cc2)NC(=O)[C@@H](CO)NC(C)=O)[C@@H](C)OC(=O)CNC(=O)CNC(=O)[C@H](CC(N)=O)NC1=O [Compound 19] (Ac-[dS][dY][dW][dOrn][Orn]G[dOrn]WTINGG; ester 9-C) , what is its reported Antimicrobial activity (MIC) P. aeruginosa PAO1?
-- reply 16

-- ask // query Antimicrobial activity (MIC) P. aeruginosa PAO1 value for entry CCCCCCCCCCCCCC(=O)N[C@H](CO)C(=O)N[C@H](Cc1ccc(O)cc1)C(=O)N[C@H](Cc1c[nH]c2ccccc12)C(=O)N[C@H](CCCN)C(=O)N[C@@H](CCCN)C(=O)NCC(=O)N[C@H](CCCN)C(=O)N[C@@H](Cc1c[nH]c2ccccc12)C(=O)N[C@@H]1C(=O)N[C@@H]([C@@H](C)CC)C(=O)N[C@@H](CC(N)=O)C(=O)NCC(=O)NCC(=O)O[C@@H]1C [Compound 25] (Myristoyl-[dS][dY][dW][dOrn][Orn]G[dOrn]WTINGG; ester 9-C)
-- reply 8

Shift focus to the following entry.
-- ask Returns the measured Antimicrobial activity (MIC) P. aeruginosa PAO1 for the input molecule. Input: CC[C@H](C)[C@@H]1NC(=O)[C@@H](NC(=O)[C@H](Cc2c[nH]c3ccccc23)NC(=O)[C@@H](CCCN)NC(=O)CNC(=O)[C@H](CCCN)NC(=O)[C@@H](CCCN)NC(=O)[C@@H](Cc2c[nH]c3ccccc23)NC(=O)[C@@H](Cc2ccc(O)cc2)NC(=O)[C@@H](CC(N)=O)NC(C)=O)[C@@H](C)OC(=O)[C@H](CO)NC(=O)CNC1=O [Compound 10] (Ac-[dN][dY][dW][dOrn][Orn]G[dOrn]WTIGS; ester 9-C)
-- reply 8

* * *

Test system: S. aureus USA300
Type: cell-based, Staphylococcus aureus
runConditions: USA300, 18 h
Bridge positions count the residues as written; N and C are the ends. Square brackets hold non-standard residues; d marks the D form. Peptide text beside a SMILES is read from it. * marks the point of attachment. dOrn = NCCC[C@@H](N)C(=O)O; Orn = NCCC[C@H](N)C(=O)O; Butyryl = CCCC(=O)*
Field: Antimicrobial activity (MIC) S. aureus USA300. Provide a value for each of the molecules that follow.

These recorded examples may help you get a feel for the data.
-- ask Entry CC[C@H](C)[C@@H]1NC(=O)[C@@H](NC(=O)[C@H](Cc2c[nH]c3ccccc23)NC(=O)[C@@H](CCCN)NC(=O)CNC(=O)[C@H](CCCN)NC(=O)[C@@H](CCCN)NC(=O)[C@@H](Cc2c[nH]c3ccccc23)NC(=O)[C@@H](Cc2ccc(O)cc2)NC(=O)[C@H](N)CC(N)=O)[C@@H](C)OC(=O)[C@H](CO)NC(=O)CNC1=O [Compound 9] , system S. aureus USA300: what Antimicrobial activity (MIC) S. aureus USA300 was measured?
-- reply >32 µg/mL

-- ask Which measured Antimicrobial activity (MIC) S. aureus USA300 belongs to CCCC(=O)N[C@H](CC(N)=O)C(=O)N[C@H](Cc1ccc(O)cc1)C(=O)N[C@H](Cc1c[nH]c2ccccc12)C(=O)N[C@H](CCCN)C(=O)N[C@@H](CCCN)C(=O)NCC(=O)N[C@H](CCCN)C(=O)N[C@@H](Cc1c[nH]c2ccccc12)C(=O)N[C@@H]1C(=O)N[C@@H]([C@@H](C)CC)C(=O)NCC(=O)N[C@@H](CO)C(=O)O[C@@H]1C [Compound 11] (Butyryl-[dN][dY][dW][dOrn][Orn]G[dOrn]WTIGS; ester 9-C) , tested on S. aureus USA300?
-- reply >32 µg/mL

Moving on to the next molecule.
-- ask Please tell me: Antimicrobial activity (MIC) S. aureus USA300 of CC[C@H](C)[C@@H]1NC(=O)[C@@H](NC(=O)[C@H](Cc2c[nH]c3ccccc23)NC(=O)[C@@H](CCCN)NC(=O)CNC(=O)[C@H](CCCN)NC(=O)[C@@H](CCCN)NC(=O)[C@@H](Cc2c[nH]c3ccccc23)NC(=O)[C@@H](Cc2ccc(O)cc2)NC(=O)[C@H](N)CO)[C@@H](C)OC(=O)CNC(=O)CNC(=O)[C@H](CC(N)=O)NC1=O [Compound 18] (H-[dS][dY][dW][dOrn][Orn]G[dOrn]WTINGG; ester 9-C) , system S. aureus USA300?
-- reply >32 µg/mL
